Origin of the recorded values: the supplement of paper PMC10065799

# testTarget: SHP2-C SH2
# test: SH2 binding enrichment of the phosphorylated peptide, bacterial display (enrichment ratio); higher = better substrate or ligand; peptides without Tyr show the background;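 also: peptide library displayed on the E. coli surface as eCPX fusions, selected cells deep-sequenced, score is each peptide's frequency after selection divided by its frequency in the input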
Provide the reported SH2 binding enrichment of each item.
Form rule: numeric answer, no unit written next to it.

Task: What value of SH2 binding enrichment has been reported for the following sequence? ALVDTYCRHNF [HLA-DRB1_Y107_A103L_YF]
Result: 0.845

Task: What value of SH2 binding enrichment has been reported for the following sequence? GTATAYLCGVK [ALPL_Y117]
Result: 0.695

Task: What value of SH2 binding enrichment has been reported for the following sequence? SHGQDYLAGNK [GSTA2_Y147_V149A]
Result: 0.693

Task: What value of SH2 binding enrichment has been reported for the following sequence? VPLATYMQIYK [RPL21_Y30_R32Q]
Result: 0.791

Task: What value of SH2 binding enrichment has been reported for the following sequence? WLFFRYLPIGC [ATP2A2_Y836_A838P]
Result: 1.36

Task: What value of SH2 binding enrichment has been reported for the following sequence? KKFPDYIQSAM [SGMS2_Y59_I62S_YF]
Result: 0.694

Task: What value of SH2 binding enrichment has been reported for the following sequence? SVVVPYQPPEV [TP53_Y220_E221Q]
Result: 0.696

Task: What value of SH2 binding enrichment has been reported for the following sequence? RLPINYTTRRI [LAMA2_Y2894_G2889R]
Result: 0.636

Task: What value of SH2 binding enrichment has been reported for the following sequence? CSTIHYNFMCN [TP53_Y234_T230S_YF]
Result: 1.91

Task: What value of SH2 binding enrichment has been reported for the following sequence? AFLEDYFTSTE [SRC_Y522]
Result: 0.959

Task: What value of SH2 binding enrichment has been reported for the following sequence? KSAAIYNPVIF [RHO_Y301_YF]
Result: 0.75

Task: What value of SH2 binding enrichment has been reported for the following sequence? NDQANYSLNTD [ADA_Y290]
Result: 0.696

Task: What value of SH2 binding enrichment has been reported for the following sequence? TVDASYYGGRG [ANTXR2_Y380]
Result: 0.424

Task: What value of SH2 binding enrichment has been reported for the following sequence? TNGFTCGSSHQ [MANEA_Y331_Y331C]
Result: 0.642

* * *

Provide the reported SH2 binding enrichment of each item.
# testTarget: c-Src SH2
# test: SH2 binding enrichment of the phosphorylated peptide, bacterial display (enrichment ratio); higher = better substrate or ligand; peptides without Tyr show the background
Form rule: numeric answer, no unit written next to it.

Task: What value of SH2 binding enrichment has been reported for the following sequence? RPFRPYIIRGM [LRP5_Y1531_YF]
Result: 0.482

Task: What value of SH2 binding enrichment has been reported for the following sequence? LVMFIYAIFWM [SCN1A_Y1684_G1688W]
Result: 1.21

Task: What value of SH2 binding enrichment has been reported for the following sequence? RKKEEYKMAPY [F8_Y1990_L1994P]
Result: 0.721

Task: What value of SH2 binding enrichment has been reported for the following sequence? ADVLDYIKALN [HPRT1_Y81_L78V]
Result: 0.553

Task: What value of SH2 binding enrichment has been reported for the following sequence? TYVKSYTIHYS [F5_Y2153_M2148T]
Result: 0.652

Task: What value of SH2 binding enrichment has been reported for the following sequence? RENGPYYTSYP [GDAP2_Y487]
Result: 0.955

Task: What value of SH2 binding enrichment has been reported for the following sequence? GHRPVYSEDEQ [CHST6_Y362_Y358H]
Result: 0.641

Task: What value of SH2 binding enrichment has been reported for the following sequence? DSFATYFRRVL [H2BW1_Y84]
Result: 0.373

Task: What value of SH2 binding enrichment has been reported for the following sequence? PLLEYYWDIFT [CDAN1_Y713_R714W]
Result: 0.959

Task: What value of SH2 binding enrichment has been reported for the following sequence? LKALHYMAQTS [SACS_Y3367_V3369A]
Result: 0.609

Task: What value of SH2 binding enrichment has been reported for the following sequence? DENCFYTRAAS [RPS19_Y54_W52C]
Result: 0.942

Task: What value of SH2 binding enrichment has been reported for the following sequence? LKYAIYFEVRE [LAMA2_Y1258_A1261V]
Result: 0.544

Task: What value of SH2 binding enrichment has been reported for the following sequence? KRLDGYVLEGW [IGSF9_Y656_R661W]
Result: 2.36

Task: What value of SH2 binding enrichment has been reported for the following sequence? ACLSLYGGFVE [MVD_Y164_R161L]
Result: 0.464
